All figures here come from ChEMBL document CHEMBL1268972.

Protocol Text: Binding to HIV1 Vpr by isothermal titration calorimetry
Design: species or system Human immunodeficiency virus
Assay Metric: Kd (µM)
A number alone suffices; assume µM.

Q: Give the reported value of Kd for this record: C[C@H](CC(N)=O)N(C[C@@H](CCCCN)N(C[C@@H](CCCCN)N(C[C@@H](Cc1ccc(O)cc1)NC(=O)Cc1ccc([N+](=O)[O-])cc1)C(=O)CCc1ccccc1)C(=O)CCc1ccccc1)C(=O)CCc1ccccc1
A: 25
